- System: CD2F1 mice, L1210 leukemia ip, survival T/C
- Test: NCI In Vivo Anticancer Drug Screen. Data for tumor model L1210 Leukemia (intraperitoneal) in CD2F1 (CDF1) mice
- Stated Conditions: endpoint: mean survival time; dose: 200.0 mg/kg/injection; schedule: Q04DX003 (ip); vehicle: other; higher = longer survival
Inconclusive results and toxic doses are left out.
Recorded T/C for the following molecules

Molecule	Target Or System	T/C
CCOC(=O)C(Cl)c1ccc(OC)cc1 (stereo not given)	CD2F1 mice, L1210 leukemia ip, survival T/C	97 % of control
O=c1oc(-c2ccccc2)nc2c(Cl)ccc(Cl)c12	CD2F1 mice, L1210 leukemia ip, survival T/C	119 % of control
CC(=O)N(C(C)=O)c1nc(Br)c2ccccc2c1-c1ccc([N+](=O)[O-])cc1	CD2F1 mice, L1210 leukemia ip, survival T/C	94 % of control

Exercise: Query: T/C; subject: Clc1nnc(Nc2ccccc2)c2ccccc12
Key: 88 % of control

Exercise: Query: T/C; subject: Cc1ccc(CNc2ccc(C)c(Cl)c2)cc1
Key: 97 % of control

----------
- Tested on: CD2F1 mice, L1210 leukemia ip, survival T/C
- Test: NCI In Vivo Anticancer Drug Screen. Data for tumor model L1210 Leukemia (intraperitoneal) in CD2F1 (CDF1) mice
- Stated Conditions: endpoint: mean survival time; dose: 200.0 mg/kg/injection; schedule: Q01DX009 (ip); vehicle: saline with Tween-80; higher = longer survival
Toxic doses and inconclusive results are not listed.
Endpoint: T/C

Compound	T/C
Cc1noc(N)c1C	92 % of control
COC(=O)c1ccc(C(=O)OC)cc1	98 % of control
N/N=C(/C(=O)c1ccccc1)c1ccccc1	97 % of control
Cc1ccc2c(c1Oc1ccc(S(N)(=O)=O)cc1)C(=O)c1ccccc1C2=O	101 % of control
C=C1C(=O)O[C@@H]2[C@H]1CC[C@H](C)[C@]1(O)CCC(=O)[C@@]21C	101 % of control

Exercise: Query: T/C; subject: Cc1ccc2nc3c(nc2c1)-c1cccc2cccc-3c12
Key: 94 % of control

Exercise: Query: T/C; subject: O=C1NCC(Br)C(=O)N1 (stereo unspecified)
Key: 90 % of control

Exercise: Query: T/C; subject: CC(C)(CCl)C(=O)O
Key: 93 % of control

Exercise: Query: T/C; subject: Clc1ccc2ccc(Cl)cc2c1
Key: 96 % of control

----------
- Tested on: CD2F1 mice, L1210 leukemia ip, survival T/C
- Test: NCI In Vivo Anticancer Drug Screen. Data for tumor model L1210 Leukemia (intraperitoneal) in CD2F1 (CDF1) mice
- Stated Conditions: endpoint: mean survival time; dose: 37.5 mg/kg/injection; schedule: Q01DX009 (ip); vehicle: saline; higher = longer survival
Inconclusive results and toxic doses are left out.
Recorded T/C for the following molecules

Molecule	Reported Result
N=C(N)N1CCc2ccccc2C1	98 % of control
CC(CN=[N+]=[N-])OC(=O)C(F)(F)F (centres undefined)	94 % of control
CCOc1ccc(/C=C/C(=O)c2ccc(C)cc2)cc1OCC	98 % of control

Exercise: Query: T/C; subject: O=c1cc[nH]c2c(-c3ccccc3)cccc12
Key: 108 % of control

----------
- System: CD2F1 mice, L1210 leukemia ip, survival T/C
- Test: NCI In Vivo Anticancer Drug Screen. Data for tumor model L1210 Leukemia (intraperitoneal) in CD2F1 (CDF1) mice
- Stated Conditions: endpoint: mean survival time; dose: 100.0 mg/kg/injection; schedule: Q04DX003 (ip); vehicle: saline with Tween-80; higher = longer survival
Toxic doses and inconclusive results are not listed.
Endpoint: T/C

Molecule	T/C
O=C(Nc1ccc(Cl)c(Cl)c1)Sc1ccc(Cl)cc1	105 % of control

Exercise: Query: T/C; subject: Cc1ncoc1C(=O)O
Key: 109 % of control

Exercise: Query: T/C; subject: Cc1cc(N(C)C)ccc1N=Nc1cc[n+]([O-])c(C)c1
Key: 104 % of control

Exercise: Query: T/C; subject: Cc1ccccc1OP(=O)(c1ccccc1)c1ccccc1
Key: 100 % of control

----------
- Tested on: CD2F1 mice, L1210 leukemia ip, survival T/C
- Test: NCI In Vivo Anticancer Drug Screen. Data for tumor model L1210 Leukemia (intraperitoneal) in CD2F1 (CDF1) mice
- Stated Conditions: endpoint: mean survival time; dose: 200.0 mg/kg/injection; schedule: Q04DX003 (ip); vehicle: saline; higher = longer survival
- Procedure: The antitumor activity of compounds was measured in mice bearing transplantable tumors. Survival or tumor size were measured and the results are expressed as the measurement made in the treated group (T) divided by the measurement made in the vehicle treated control group (C). The tumor model used in this assay is L1210 Leukemia (intraperitoneal) in CD2F1 (CDF1) mice
Toxic doses and inconclusive results are not listed.
Endpoint: T/C

# example entries with known answers
Compound	Reported Result
CCCCCC(O)CCC(=O)NN (centres undefined)	117 % of control
O=C(O)C1(O)C[C@@H](O)C(O)[C@H](O)C1 (some centres undefined)	98 % of control
CN=C(N)N=C(N)N	100 % of control

Exercise: Query: T/C; subject: C=CCNC(N)=O
Key: 93 % of control

Exercise: Query: T/C; subject: O=S(=O)(O)Cc1ccccc1O
Key: 95 % of control

Exercise: Query: T/C; subject: COCCOCCOCCOCCOCCN
Key: 101 % of control

Exercise: Query: T/C; subject: CCCCN1CCNCC1
Key: 94 % of control

Exercise: Query: T/C; subject: Cc1c2ccncc2c(C)c2c1[nH]c1ccc(Br)cc12
Key: 103 % of control

----------
Recorded T/C for the following molecules
- Test system: CD2F1 mice, L1210 leukemia ip, survival T/C
- Test: NCI In Vivo Anticancer Drug Screen. Data for tumor model L1210 Leukemia (intraperitoneal) in CD2F1 (CDF1) mice
- Stated Conditions: endpoint: mean survival time; dose: 25.0 mg/kg/injection; schedule: Q01DX009 (ip); vehicle: water; higher = longer survival
Inconclusive results and toxic doses are left out.

# example entries with known answers
Molecule	Target Or System	Reported Result
Cc1c[n+]([O-])ccc1Br	CD2F1 mice, L1210 leukemia ip, survival T/C	94 % of control
CC1=C(c2ccccc2)OS(=O)(=O)NC1=O	CD2F1 mice, L1210 leukemia ip, survival T/C	91 % of control
CN1CCC(CO)C1 (stereo not given)	CD2F1 mice, L1210 leukemia ip, survival T/C	91 % of control
CN(C)C=NC1=NN(C)c2ncnc3c2c1cn3C1OC(CO)C(O)C1O (stereo not given)	CD2F1 mice, L1210 leukemia ip, survival T/C	95 % of control

Next, consider the following molecule.
Exercise: Query: T/C; subject: CC(=O)Oc1cccc2c1C(=O)c1c(OC(C)=O)cccc1C2=O
Key: 102 % of control

----------
- Test system: CD2F1 mice, L1210 leukemia ip, survival T/C
- Test: NCI In Vivo Anticancer Drug Screen. Data for tumor model L1210 Leukemia (intraperitoneal) in CD2F1 (CDF1) mice
- Stated Conditions: endpoint: mean survival time; dose: 200.0 mg/kg/injection; schedule: Q01DX001 (ip); vehicle: Klucel (hydroxypropylcellulose) (HPC); higher = longer survival
Inconclusive results and toxic doses are left out.
Endpoint: T/C

Compound	Target Or System	T/C
COc1cc([N+](=O)[O-])ccc1C(=O)O	CD2F1 mice, L1210 leukemia ip, survival T/C	100 % of control
C=C(C)C1CCC2(C(=O)O)CCC3(C)C(CCC4C5(C)CCC(OC(C)=O)C(C)(C)C5CCC43C)C12 (configuration not stated)	CD2F1 mice, L1210 leukemia ip, survival T/C	93 % of control
O=C1c2ccccc2C(=O)N1c1ccc(Cl)cc1	CD2F1 mice, L1210 leukemia ip, survival T/C	96 % of control
C=CCC(C#N)(CC=C)C(=O)OCC	CD2F1 mice, L1210 leukemia ip, survival T/C	102 % of control
CCOC(=O)c1c(C)oc2cc3c(C(=O)OCC)c(C)oc3cc12	CD2F1 mice, L1210 leukemia ip, survival T/C	95 % of control
NC(=O)c1cc([N+](=O)[O-])ccc1NN=NCCCl	CD2F1 mice, L1210 leukemia ip, survival T/C	231 % of control

Next, consider the following compound.
Exercise: Query: T/C; subject: Cc1cccc([N+](=O)[O-])c1-c1ccccc1C(=O)O
Key: 101 % of control

----------
- Test system: CD2F1 mice, L1210 leukemia ip, survival T/C
- Test: NCI In Vivo Anticancer Drug Screen. Data for tumor model L1210 Leukemia (intraperitoneal) in CD2F1 (CDF1) mice
- Stated Conditions: endpoint: mean survival time; dose: 200.0 mg/kg/injection; schedule: Q01DX005 (ip); vehicle: distilled water + Tween-80; higher = longer survival
Toxic doses and inconclusive results are not listed.
Endpoint: T/C

# example entries with known answers
Molecule	Endpoint	Reported Result
CCOC(=O)CCCSc1nn(C2OC(COC(=O)c3ccccc3)C(OC(=O)c3ccccc3)C2OC(=O)c2ccccc2)c(=O)[nH]c1=O (stereo not given)	T/C	92 % of control
Nc1cc2c(nnn2C2OC(CO)C(O)C2O)c(=O)[nH]1 (stereo not given)	T/C	88 % of control
Cc1nc(=O)cnn1C1OC(CO)C(O)C1O (stereo not given)	T/C	105 % of control

Exercise: Query: T/C; subject: Cc1cn(C2CC(O)C(COP(N)(N)=O)O2)c(=O)[nH]c1=O (stereo not given)
Key: 98 % of control

Exercise: Query: T/C; subject: Cn1c(=O)c2c(ncn2CCNCC(O)c2cc(C(C)(C)C)c(O)c(C(C)(C)C)c2)n(C)c1=O (stereo not given)
Key: 101 % of control
